# Tested on: HCV replicon RNA in replicon cells
# Procedure details: Replicon RNA response to antiviral agent(s), real time PCR (Taqman assay)
# Type: cell-based
# Condition: Hepatitis C virus, cells selected by: Formula Ia + 2′-methyl-adenosine; read-out: Inhibitor IC50 in replicon cells
# Method: Replicon RNA response to antiviral agent(s) was examined using the HCV protease inhibitor Formula Ia alone or in combination with HCV NS5B polymerase inhibitors 2′-methyl-adenosine, benzothiadiazine, indole-N-acetamide, or NM 107. […] In brief, replicon cells were seeded at 4000 cells/well in 96-well collagen 1-coated Biocoat plates (Becton Dickinson). […] The replicon RNA level was measured using real time PCR (Taqman assay). […]
Readout type: IC50

q: Returns the measured IC50 for the input compound. Input: CC(C)(C)NC(=O)N[C@H](C(=O)N1CC2C([C@H]1C(=O)NC(CC1CCC1)C(=O)C(N)=O)C2(C)C)C(C)(C)C (stereo partly shown)
a: 3.5 µM

----------
# Tested on: HCV replicon RNA in replicon cells
# Procedure details: Replicon RNA response to antiviral agent(s), real time PCR (Taqman assay)
# Assay type: cell-based
# Condition: Hepatitis C virus, cells selected by: Formula Ia + Indole-N-acetamide; read-out: Inhibitor IC50 in replicon cells
Readout type: pIC50
Reminder that pIC50 is minus the log10 of a molar concentration.

q: # get_value(readout='pIC50', item= CC(C)(C)NC(=O)N[C@H](C(=O)N1CC2C([C@H]1C(=O)NC(CC1CCC1)C(=O)C(N)=O)C2(C)C)C(C)(C)C (stereo partly shown) )
a: 5.62
